target: human mitochondrial NAD(P)+-dependent malic enzyme (m-NAD(P)-ME, ME2) (Homo sapiens)
Sequence (P23368 19-584): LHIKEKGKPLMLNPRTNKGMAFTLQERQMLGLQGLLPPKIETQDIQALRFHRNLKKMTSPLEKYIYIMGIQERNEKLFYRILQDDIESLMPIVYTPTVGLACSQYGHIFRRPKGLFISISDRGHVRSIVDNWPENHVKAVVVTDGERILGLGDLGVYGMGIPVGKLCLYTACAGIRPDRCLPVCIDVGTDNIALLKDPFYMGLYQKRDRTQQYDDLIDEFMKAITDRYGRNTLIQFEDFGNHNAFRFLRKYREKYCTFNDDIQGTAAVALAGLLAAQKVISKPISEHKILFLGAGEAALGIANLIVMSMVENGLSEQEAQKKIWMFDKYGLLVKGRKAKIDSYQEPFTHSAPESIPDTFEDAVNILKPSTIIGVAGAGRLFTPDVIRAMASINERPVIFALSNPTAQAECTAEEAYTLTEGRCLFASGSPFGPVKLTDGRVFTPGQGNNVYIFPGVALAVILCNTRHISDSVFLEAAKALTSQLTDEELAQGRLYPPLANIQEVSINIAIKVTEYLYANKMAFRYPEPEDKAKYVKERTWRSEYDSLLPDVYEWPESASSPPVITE
method summary: spectrophotometric NADH assay at […] nm; fumarate competition/rescue; allosteric-site mutant controls
Format: biochemical
property measured: IC50

- CCOC(=O)/C=C(\O)C(=O)OCC [diethyl oxalacetate]: ~2500 µM

Just for reference, paper PMC4049574 is where these values come from.
